B1: DLC1 (parent)
chain: AIQGISEKEKAEIEAKEACDWLRA

Variants of: B1
Assay: protein stability index of a GFP-peptide fusion (GPS, HEK-293T) (PSI 1-6); higher = more stable;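 further: lentivirally expressed fusions sorted by FACS into six bins by GFP to DsRed ratio, PSI derived from sequencing read proportions per bin multiplied by bin number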
Details: c terminus: a fixed tail appended
Measurement Label: protein stability index
The answer should be written as a number, with no unit following it.

[[record]]
residue_change = "K16E"
experimental_value = 5.21


Prompt: What value of protein stability index has been reported for the following variant? W21H
Response: 5.29

Prompt: What value of protein stability index has been reported for the following variant? E7A
Response: 4.25

Prompt: What value of protein stability index has been reported for the following variant? E7N
Response: 3.72

Prompt: What value of protein stability index has been reported for the following variant? W21M
Response: 5.6

Prompt: What value of protein stability index has been reported for the following variant? A11V
Response: 4.61

Prompt: What value of protein stability index has been reported for the following variant? R23M
Response: 4.45

Prompt: What value of protein stability index has been reported for the following variant? R23F
Response: 4.33

Prompt: What value of protein stability index has been reported for the following variant? R23Q
Response: 5.25

Prompt: What value of protein stability index has been reported for the following variant? K10S
Response: 4.61

Prompt: What value of protein stability index has been reported for the following variant? I13T
Response: 4.16

Prompt: What value of protein stability index has been reported for the following variant? A1D
Response: 4.96

The reported measurements were obtained from the supplement of paper PMC10567573.
